# Test system: SK-MEL-2 melanoma
# PROTOCOL_TEXT: NCI-60 one-dose screen, 48 h
# STUDY_CONDITIONS: 10 µM unless noted
Compounds without any hit were thinned out: in the full panel of roughly 83,000, 20% have a hit. Calls of active or inactive are those of the source. How the source made its calls: active means growth percent below 10; inactive means the rest.
Respond with a class label; see active, inactive

{"COMPOUND": "O=C1NC(=O)C(=Cc2cn(Cc3cn(Cc4ccc(Cl)cc4Cl)nn3)c3ccccc23)C(=O)N1", "CATEGORY": "inactive"}

Any idea what this test logged for O=c1c2cc(F)cc(Cl)c2sc2c(Cl)nc3ccccc3c12 ?
inactive

Kindly provide the recorded test outcome for the following compound: O=C(c1nc2ccccc2[nH]1)C1C(c2ccc(F)cc2)C2CC3CCCCC3N2[C@@]12C(=O)Nc1ccc(Cl)cc12 (stereo not given in full)
inactive

What did this assay record as the result for COC(=O)c1c2c(c(C)[n+]([O-])c1C)C(=O)C=C(NCc1ccccc1)C2=O ?
active

Record request — test call for Cc1ccc(S(=O)c2ccc([N+](=O)[O-])c3nonc23)cc1 (stereo not given)
inactive

====

# System: U251 CNS
# PROTOCOL_TEXT: NCI-60 one-dose screen, 48 h (100 = growth as untreated, 0 = no growth, -100 = all killed)
# STUDY_CONDITIONS: 10 µM unless noted
The panel holds about 83,000 compounds, 20% with a hit somewhere; the sample as a whole holds those more often.
VALUE_TYPE: growth (%)
Give your result in % as a bare value.

Worked set:
{"COMPOUND": "COc1cc(/C=C2\\CN(C)C/C(=C\\c3cc(CN4CCCCC4)c(O)c(OC)c3)C2=O)cc(CN2CCCCC2)c1O", "growth, %": 15}
{"COMPOUND": "O=C(O)CCCN1C(=O)C2C3CCC(C3)C2C1=O (configuration not stated)", "growth, %": 104}
{"COMPOUND": "COc1ccc2sc(N(Cc3cccnc3)C(=O)c3ccc(C#N)cc3)nc2c1", "growth, %": 67.4}
{"COMPOUND": "O=c1oc2ccc(Br)cc2c(=O)n1-c1ccc(Cl)cc1F", "growth, %": 3.56}
{"COMPOUND": "Cn1c(=O)n(C)c2cc(CNCCNc3ccnc4cc(Cl)ccc34)ccc21", "growth, %": 51.5}

The compound listed as COC(=O)c1c2c(c(C)[n+]([O-])c1C)C(=O)C=C(NCc1ccc(F)c(F)c1)C2=O shows growth equal to -31.9

Form field growth, entry CCOC(=O)C1=C(C)N=c2s/c(=C\c3ccccc3O)c(=O)n2C1c1ccc(OC)c2ccccc12 (configuration not stated) : -68.6

Consider COc1ccc(N)c(-c2cc3c(c4c2[nH]c2ccc(OC)cc24)CCCC3)c1 . Its measured growth is 74.3

====

Below, each entry is listed with its recorded growth.
# Tested on: MCF7 breast
# PROTOCOL_TEXT: NCI-60 one-dose screen, 48 h (100 = growth as untreated, 0 = no growth, -100 = all killed)
# STUDY_CONDITIONS: 10 µM
About 83,000 compounds went through this panel and 20% of them were active in at least one assay; those are over-represented in the sample as a whole.
// return numeric value only (unit: %, not printed)

As a guide, the following entries are already answered.
{"COMPOUND": "COc1ccc(N(C)c2nc(N)nc3sc4c(c23)CCCC4)cc1", "growth [%]": 15.2}
{"COMPOUND": "S=C1CCCC(=S)N1", "growth [%]": 105}
{"COMPOUND": "CCCCc1ccc(NS(=O)(=O)c2cc3c4c(c2)CCN4C(=O)CC3)cc1", "growth [%]": 16.2}

response.value for O=C(Nc1ccc(I)cc1F)c1cc(F)ccc1O (field: growth) = 0.117

Summary for this compound, CC1=C(C(=O)OCC2CCN(C(=O)OC(C)(C)C)CC2)[C@H](c2cccc(C#N)c2)C2=C(CC(C)(C)CC2=O)N1 : growth is 40.8
